Hey, just so you know, these numbers are from PubChem BioAssay (NCATS).

Molecular target: Peroxisome proliferator-activated receptor delta (Homo sapiens) (UniProt Q03181)
Sequence (Q03181 whole entry, looked up): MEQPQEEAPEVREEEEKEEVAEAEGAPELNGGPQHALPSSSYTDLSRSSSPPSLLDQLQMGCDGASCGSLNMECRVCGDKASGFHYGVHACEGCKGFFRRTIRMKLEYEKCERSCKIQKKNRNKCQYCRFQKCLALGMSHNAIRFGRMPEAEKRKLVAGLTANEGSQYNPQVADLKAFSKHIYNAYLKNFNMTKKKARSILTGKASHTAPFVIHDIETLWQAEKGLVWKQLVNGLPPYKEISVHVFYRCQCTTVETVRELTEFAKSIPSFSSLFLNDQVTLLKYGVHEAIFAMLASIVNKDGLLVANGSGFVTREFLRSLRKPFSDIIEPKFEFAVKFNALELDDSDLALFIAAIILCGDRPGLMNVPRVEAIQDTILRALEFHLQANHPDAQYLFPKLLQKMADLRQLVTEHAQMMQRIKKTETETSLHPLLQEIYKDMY
Experiment: qHTS assay for small molecule agonists of peroxisome proliferator-activated receptor delta signaling (AID 588534)
Settings: HEK293T PPARdelta-UAS-bla, beta-lactamase ratio, 18 h; series mostly up to 76.7 µM
Records with an inconclusive call do not appear. Active and inactive are the calls of the source. Calls come from the whole dose curve.

{"columns": ["Molecule", "outcome"],
 "data": [
  ["O=C(O)COc1ccccc1", "inactive"],
  ["C[C@]12C[C@H](O)[C@H]3[C@@H](CCC4=CC(=O)CC[C@@]43C)[C@@H]1CC[C@@H]2C(=O)CO", "inactive"],
  ["S=c1[nH]c2ccccc2s1", "inactive"],
  ["Nc1ccc(Sc2ccc(N)cc2)cc1", "inactive"],
  ["Cc1ccc(N)cc1O", "inactive"],
  ["C=CC(=O)NCNC(=O)C=C", "inactive"],
  ["Nc1cccc2c(N)cccc12", "inactive"],
  ["Nc1ccc([N+](=O)[O-])cc1O", "inactive"],
  ["Nc1ccc(O)c([N+](=O)[O-])c1", "inactive"],
  ["COc1nn(CSP(=S)(OC)OC)c(=O)s1", "inactive"],
  ["O=C(NO)c1ccccc1", "inactive"],
  ["O=C1NS(=O)(=O)c2ccccc21", "inactive"],
  ["CCCCCCCCCC(CC)c1ccc(S(=O)(=O)O)cc1 (centres undefined)", "inactive"],
  ["CCOP(=O)(NC(C)C)Oc1ccc(SC)c(C)c1 (centres undefined)", "inactive"]
]}

* * *

Test system: DIV14
Test: qHTS profiling for inhibitors of Plasmodium falciparum proliferation (AID 504749); note: nearly all actives have a fitted effect of over 60% in size
Details: P. falciparum in erythrocytes, SYBR Green DNA, 72 h; series mostly up to 28.7 µM
Records with an inconclusive call do not appear. Active and inactive are the calls of the source. Calls follow the shape of the dose curve; as a rule, active = well fitted inhibition curve with a large enough effect; inconclusive = small, poorly fitted or top-dose-only effect; inactive = flat fitted curve, though single readings scatter.
Outcomes: active, inactive

{"columns": ["Compound", "Label"],
 "data": [
  ["NC1=NC(=O)N2CC12 (stereo not given)", "inactive"],
  ["C#CC1(O)CCC2C3CCC4=CC(=O)CCC4(C)C3CCC21C (stereo not given)", "inactive"],
  ["CCCN1CCC[C@H](c2cccc(O)c2)C1", "inactive"],
  ["CN[C@@H]1C[C@@H](c2ccc(Cl)c(Cl)c2)c2ccccc21", "active"],
  ["Cc1ccc(Cl)c(O)c1", "inactive"]
]}

* * *

Assay: Cell Viability - LYMP2-026 (AID 989);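 note: cells exposed to compound for 24 h at 37 °C; nearly all actives have a fitted effect of over 50% in size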
Conditions: LYMP2-026 lymphoblastoid cell viability, qHTS; series mostly up to 92.2 µM
Results filed as inconclusive are left out. Calls of active or inactive are those of the source. The call rests on the fitted dose curve; in most records, active means well fitted cell-killing curve with a large enough effect; inconclusive means small, poorly fitted or top-dose-only effect; inactive means flat fitted curve, though single readings scatter.
Outcome codes: true (active), false (inactive)

{"columns": ["Molecule", "Label"],
 "data": [
  ["O=C(O)COc1ccccc1", "false"],
  ["CCCCCCCCc1ccc(O)cc1", "false"],
  ["COC(C)(C)CCCC(C)C/C=C/C(C)=C/C(=O)OC(C)C (centres undefined)", "false"],
  ["CCOCCOC(C)=O", "false"],
  ["CC(=O)[O][Hg][c]1ccccc1", "true"],
  ["Nc1ccc(Sc2ccc(N)cc2)cc1", "false"],
  ["O=[N+]([O-])c1c2ccccc2cc2ccccc12", "false"],
  ["C=CC(=O)NCNC(=O)C=C", "false"],
  ["OCCCBr", "false"],
  ["O=[N+]([O-])c1cc([N+](=O)[O-])c2ccccc2c1", "false"],
  ["CCCCOC(=O)c1ccccc1C(=O)OCc1ccccc1", "false"],
  ["O=[N+]([O-])c1c(Cl)c(Cl)cc(Cl)c1Cl", "false"],
  ["CC(C)(O)C(=O)Nc1ccc([N+](=O)[O-])c(C(F)(F)F)c1", "false"],
  ["CN(C)[C@@H]1C(=O)C(C(N)=O)=C(O)[C@@]2(O)C(=O)C3=C(O)c4c(O)cccc4[C@@](C)(O)[C@H]3[C@H](O)[C@@H]12", "false"]
]}
